// data source = patent US20240174637A1

molecular target: GRK2 (Homo sapiens, UniProt P25098); test: GRK2 Degradation Assay and Western Blot in PAXF1657 cells; format: cell-based; parameters: endogenous in cells; host or cells: PAXF1657; conditions: Conc 0.3 uM; read-out: Degradation Assay - 3 point: Degradation (%)
Sequence (P25098 whole entry): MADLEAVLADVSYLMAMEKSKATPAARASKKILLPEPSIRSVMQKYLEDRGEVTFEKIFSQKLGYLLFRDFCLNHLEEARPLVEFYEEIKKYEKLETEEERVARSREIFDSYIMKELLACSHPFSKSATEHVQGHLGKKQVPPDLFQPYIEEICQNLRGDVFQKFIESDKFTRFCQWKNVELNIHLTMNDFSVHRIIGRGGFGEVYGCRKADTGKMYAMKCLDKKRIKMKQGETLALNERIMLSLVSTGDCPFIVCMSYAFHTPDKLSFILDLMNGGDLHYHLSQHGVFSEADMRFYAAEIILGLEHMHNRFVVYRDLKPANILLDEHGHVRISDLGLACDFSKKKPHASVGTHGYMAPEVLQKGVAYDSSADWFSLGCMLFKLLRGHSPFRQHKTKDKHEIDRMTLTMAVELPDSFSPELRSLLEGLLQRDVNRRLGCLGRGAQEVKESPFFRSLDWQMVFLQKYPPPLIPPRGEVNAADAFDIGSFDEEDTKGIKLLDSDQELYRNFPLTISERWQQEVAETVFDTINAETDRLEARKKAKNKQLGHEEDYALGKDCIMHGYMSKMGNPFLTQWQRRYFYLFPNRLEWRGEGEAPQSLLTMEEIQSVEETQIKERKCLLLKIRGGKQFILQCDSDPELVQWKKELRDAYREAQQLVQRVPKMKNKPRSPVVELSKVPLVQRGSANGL
Structures can show the parent of a compound that is named as a salt.

>  <compound>
C[C@@H](NC(=O)c1cccc(NCc2nnc(-c3ccncn3)n2C)c1)c1ccc(OCC(=O)N2CCN(c3ccc4c(c3)CN(C3CCC(=O)NC3=O)C4=O)CC2)cc1 (stereo partly drawn)

>  <unit of measure>
%

>  <inhibition at 0.3 µM>
13.2

$$$$
>  <compound>
C[C@@H](NC(=O)c1cccc(NCc2nnc(-c3ccncn3)n2C)c1)c1cccc(OCCCN2CCN(c3ccc4c(c3)CN(C3CCC(=O)NC3=O)C4=O)CC2)c1 (stereo partly drawn) [Compound D123, hydrochloride]

>  <unit of measure>
%

>  <inhibition at 0.3 µM>
81.6

$$$$
>  <compound>
C[C@@H](NC(=O)c1cccc(NCc2nnc(-c3ccncn3)n2C)c1)c1cccc(OCCCCCCOCCOCCOCCCCCC(=O)Nc2cccc3c2CN(C2CCC(=O)N(C)C2=O)C3=O)c1 (stereo partly drawn)

>  <unit of measure>
%

>  <inhibition at 0.3 µM>
-22

$$$$

----------
inhibition at 3 µM by entry:
target: GRK2 (Homo sapiens, UniProt P25098); test: GRK2 Degradation Assay and Western Blot in PAXF1657 cells; type: cell-based; design: endogenous in cells; host or cells: PAXF1657; settings: Conc 3 uM; read-out: Degradation Assay - 3 point: Degradation (%)
Counter-ions that a name gives are not always drawn.

>  <compound>
C[C@H](NC(=O)c1cccc(NCc2nnc(-c3ccncn3)n2C)c1)c1ccc(OCCCN2CCN(c3ccc4c(c3)CN(C3CCC(=O)NC3=O)C4=O)CC2)cc1 (some centres unmarked) [Compound D118, hydrochloride]

>  <unit of measure>
%

>  <inhibition at 3 µM>
5.18

$$$$
>  <compound>
C[C@@H](NC(=O)c1cccc(NCc2nnc(-c3ccncn3)n2C)c1)c1cccc(OCCCCCCOCC(=O)N2CCN(c3cc4c(cc3F)C(=O)N(C3CCC(=O)NC3=O)C4=O)CC2)c1 (some centres unmarked) [Compound D133]

>  <unit of measure>
%

>  <inhibition at 3 µM>
86.7

$$$$
>  <compound>
Cc1ncsc1-c1ccc(CNC(=O)[C@@H]2C[C@@H](O)CN2C(=O)[C@@H](NC(=O)COCCCOCCCCCOc2ccc(CNC(=O)c3cccc(NCc4nnc(-c5ccncn5)n4C)c3)cc2)C(C)(C)C)cc1 [Compound D168]

>  <unit of measure>
%

>  <inhibition at 3 µM>
-22

$$$$
>  <compound>
Cn1c(CNc2cccc(C(=O)N[C@H]3CCOc4ccc(OCCCCCCOCCOCCOCCCCCC(=O)Nc5cccc6c5CN(C5CCC(=O)NC5=O)C6=O)cc43)c2)nnc1-c1ccncn1 (some centres unmarked) [Compound D156]

>  <unit of measure>
%

>  <inhibition at 3 µM>
11.5

$$$$
>  <compound>
C[C@@H](NC(=O)c1cccc(NCc2nnc(-c3ccncn3)n2C)c1)c1ccc(OCC(=O)N2CCN(c3ccc4c(c3)CN(C3CCC(=O)NC3=O)C4=O)CC2)cc1 (some centres unmarked) [Compound D177]

>  <unit of measure>
%

>  <inhibition at 3 µM>
36.8

$$$$

----------
test system: PAXF1657 KO Clone #4; experiment: 7-day cellular proliferation assay (CellTiter-Glo), PAXF1657 KO Clone #4; format: cell-based; conditions: proliferation, read-out: GeoMean IC50 (uM) PAXF1657 KO Clone #4
Counter-ions that a name gives are not always drawn.
measurement kind: IC50

>  <compound>
Cc1ncsc1-c1ccc(CNC(=O)[C@@H]2C[C@@H](O)CN2C(=O)[C@@H](NC(=O)COCCCOCCCCCOc2cccc([C@@H](C)NC(=O)c3cccc(NCc4nnc(-c5ccncn5)n4C)c3)c2)C(C)(C)C)cc1

>  <recorded result>
10 µM

$$$$
>  <compound>
C[C@@H](NC(=O)c1cccc(NCc2nnc(-c3ccncn3)n2C)c1)c1cccc(OCCCCCOCCCOCCOc2ccc3c(c2)CN(C2CCC(=O)NC2=O)C3=O)c1 (some centres unmarked)

>  <recorded result>
> 30 µM

$$$$
>  <compound>
C[C@@H](NC(=O)c1cccc(NCc2nnc(-c3ccncn3)n2C)c1)c1cccc(C(=O)N2CC(CN3CCN(c4ccc5c(c4)CN(C4CCC(=O)NC4=O)C5=O)CC3)C2)c1 (some centres unmarked) [Compound D121, hydrochloride]

>  <recorded result>
> 30 µM

$$$$
>  <compound>
Cc1ncsc1-c1ccc(CNC(=O)[C@@H]2C[C@@H](O)CN2C(=O)[C@@H](NC(=O)COCCCOCCCCCOc2ccc3c(c2)[C@H](NC(=O)c2cccc(NCc4nnc(-c5ccncn5)n4C)c2)CCO3)C(C)(C)C)cc1

>  <recorded result>
7.51 µM

$$$$
>  <compound>
C[C@@H](NC(=O)c1cccc(NCc2nnc(-c3ccncn3)n2C)c1)c1cccc(OCCCCCCOCCOCC(=O)N2CCN(c3cc4c(cc3F)C(=O)N(C3CCC(=O)NC3=O)C4=O)CC2)c1 (some centres unmarked)

>  <recorded result>
26.6 µM

$$$$
>  <compound>
C[C@@H](NC(=O)c1cccc(NCc2nnc(-c3ccncn3)n2C)c1)c1cccc(OCCCCCCOCCOCCOCCC(=O)N2CCN(c3cc4c(cc3F)C(=O)N(C3CCC(=O)NC3=O)C4=O)CC2)c1 (some centres unmarked)

>  <recorded result>
24.7 µM

$$$$
>  <compound>
C[C@@H](NC(=O)c1cccc(NCc2nnc(-c3ccncn3)n2C)c1)c1cccc(OCCCCCCCn2cc(CCCC(=O)Nc3cccc4c3CN(C3CCC(=O)NC3=O)C4=O)nn2)c1 (some centres unmarked)

>  <recorded result>
> 30 µM

$$$$
>  <compound>
C[C@@H](NC(=O)c1cccc(NCc2nnc(-c3ccncn3)n2C)c1)c1cccc(OCCCCCCOCC(=O)N2CCN(c3cc4c(cc3F)C(=O)N(C3CCC(=O)NC3=O)C4=O)CC2)c1 (some centres unmarked)

>  <recorded result>
> 30 µM

$$$$
>  <compound>
C[C@@H](NC(=O)c1cccc(NCc2nnc(-c3ccncn3)n2C)c1)c1cccc(OCCCCCCOCCOCCOCCCCCC(=O)N2CCN(c3ccc4c(c3)CN(C3CCC(=O)NC3=O)C4=O)CC2)c1 (some centres unmarked)

>  <recorded result>
> 30 µM

$$$$
>  <compound>
C[C@@H](NC(=O)c1cccc(NCc2nnc(-c3ccncn3)n2C)c1)c1cccc(OCCCCCCOCCOCCN2CCN(c3cc4c(cc3F)C(=O)N(C3CCC(=O)NC3=O)C4=O)CC2)c1 (some centres unmarked)

>  <recorded result>
19.9 µM

$$$$
>  <compound>
Cn1c(CNc2cccc(C(=O)N[C@H]3CCOc4ccc(OCCCCCCOCCOCCOCCCCCC(=O)Nc5cccc6c5CN(C5CCC(=O)NC5=O)C6=O)cc43)c2)nnc1-c1ccncn1 (some centres unmarked)

>  <recorded result>
> 30 µM

$$$$
>  <compound>
C[C@@H](NC(=O)c1cccc(NCc2nnc(-c3ccncn3)n2C)c1)c1cccc(OCCCCCCOCCOCC(=O)Nc2cccc3c2CN(C2CCC(=O)NC2=O)C3=O)c1 (some centres unmarked)

>  <recorded result>
> 30 µM

$$$$
>  <compound>
Cn1c(CNc2cccc(C(=O)N[C@@H]3CCOc4ccc(OCCCCCCOCCOCCOCCCCCC(=O)N5CCN(c6ccc7c(c6)CN(C6CCC(=O)NC6=O)C7=O)CC5)cc43)c2)nnc1-c1ccncn1 (some centres unmarked)

>  <recorded result>
> 30 µM

$$$$
>  <compound>
C[C@H](NC(=O)c1cccc(NCc2nnc(-c3ccncn3)n2C)c1)c1cccc(OCCCCCOCCCOCC(=O)Nc2cccc3c2CN(C2CCC(=O)NC2=O)C3=O)c1 (some centres unmarked)

>  <recorded result>
> 30 µM

$$$$
>  <compound>
C[C@@H](NC(=O)c1cccc(NCc2nnc(-c3ccncn3)n2C)c1)c1cccc(OCCN2CCN(c3ccc4c(c3)CN(C3CCC(=O)NC3=O)C4=O)CC2)c1 (some centres unmarked)

>  <recorded result>
> 30 µM

$$$$
>  <compound>
C[C@@H](NC(=O)c1cccc(NCc2nnc(-c3ccncn3)n2C)c1)c1cccc(OCCCCCCn2cc(CCC(=O)Nc3cccc4c3CN(C3CCC(=O)NC3=O)C4=O)nn2)c1 (some centres unmarked)

>  <recorded result>
> 30 µM

$$$$
>  <compound>
C[C@@H](NC(=O)c1cccc(NCc2nnc(-c3ccncn3)n2C)c1)c1cccc(OCCCCCCOCCOCCOCCCC(=O)Nc2cccc3c2CN(C2CCC(=O)NC2=O)C3=O)c1 (some centres unmarked)

>  <recorded result>
> 30 µM

$$$$
>  <compound>
C[C@@H](NC(=O)c1cccc(NCc2nnc(-c3ccncn3)n2C)c1)c1cccc(OCCCCCCOCC(=O)N2CCN(c3ccc4c(c3)CN(C3CCC(=O)NC3=O)C4=O)CC2)c1 (some centres unmarked)

>  <recorded result>
> 30 µM

$$$$
>  <compound>
C[C@@H](NC(=O)c1cccc(NCc2nnc(-c3ccncn3)n2C)c1)c1cccc(OCCCCCCn2cc(CCCCC(=O)Nc3cccc4c3CN(C3CCC(=O)NC3=O)C4=O)nn2)c1 (some centres unmarked)

>  <recorded result>
> 30 µM

$$$$
>  <compound>
Cn1c(CNc2cccc(C(=O)NCc3cc(OCCCCCOCCCOCC(=O)Nc4cccc5c4CN(C4CCC(=O)NC4=O)C5=O)ccc3F)c2)nnc1-c1ccncn1 (centres unmarked)

>  <recorded result>
> 30 µM

$$$$
